# TARGET OR TEST SYSTEM: Heat shock protein HSP 90-alpha (Homo sapiens)
# EXPERIMENTAL PROTOCOL: Inhibition of human His-tagged Hsp90 alpha N-terminal domain ATPase activity expressed in Escherichia coli BL21(DE3) at 100 uM assessed as ADP formation by pyruvate kinase/lactate dehydrogenase-coupled assay
compounds and their reported Activity
ENDPOINT LABEL: Activity (nmol/min/mg)

>>> numeric_value("CCn1cc(C(=O)NC(=S)Nc2ccc(C)cc2)c(-c2ccccc2)nc1=O")
33.1
>>> numeric_value("CCn1cc(C(=O)NC(=S)Nc2ccc(C(N)=O)cc2)c(-c2ccccc2)nc1=O")
37.5
>>> numeric_value("CCn1cc(C(=O)NC(=S)Nc2ccccc2)c(-c2ccccc2)nc1=O")
26.1
>>> numeric_value("CCn1cc(C(=O)NC(=S)Nc2cccc3ccccc23)c(-c2ccccc2)nc1=O")
8.19
>>> numeric_value("CCn1cc(C(=O)NC(=S)Nc2ccc(Cl)cc2)c(-c2ccccc2)nc1=O")
49.8
>>> numeric_value("CCn1cc(C(=O)NC(=S)Nc2ccc(F)cc2)c(-c2ccccc2)nc1=O")
27.6
>>> numeric_value("CCn1cc(C(=O)NC(=S)Nc2ccccc2C)c(-c2ccccc2)nc1=O")
28.9
>>> numeric_value("CCn1cc(C(=O)NC(=S)Nc2ccc(Br)cc2)c(-c2ccccc2)nc1=O")
13.5
>>> numeric_value("CCn1cc(C(=O)NC(=S)NCc2ccccc2)c(-c2ccccc2)nc1=O")
35.9
>>> numeric_value("CCn1cc(C(=O)NC(=S)Nc2ccc(OC)cc2)c(-c2ccccc2)nc1=O")
11.4

----------
# TARGET OR TEST SYSTEM: Heat shock protein HSP 90-alpha (Homo sapiens)
# EXPERIMENTAL PROTOCOL: Inhibition of human His-tagged Hsp90 alpha N-terminal domain ATPase activity expressed in Escherichia coli BL21(DE3) at 12.5 uM assessed as ADP formation by pyruvate kinase/lactate dehydrogenase-coupled assay
molecules and their reported Activity
ENDPOINT LABEL: Activity

>>> result("CCn1cc(C(=O)NC(=S)Nc2ccc(F)cc2)c(-c2ccccc2)nc1=O")
"72 nmol/min/mg"
>>> result("CCn1cc(C(=O)NC(=S)Nc2ccc(Cl)cc2)c(-c2ccccc2)nc1=O")
"74.1 nmol/min/mg"
>>> result("CCn1cc(C(=O)NC(=S)Nc2ccccc2C)c(-c2ccccc2)nc1=O")
"70.9 nmol/min/mg"
>>> result("CCn1cc(C(=O)NC(=S)Nc2ccc(Br)cc2)c(-c2ccccc2)nc1=O")
"39.7 nmol/min/mg"
>>> result("CCn1cc(C(=O)NC(=S)Nc2ccc(OC)cc2)c(-c2ccccc2)nc1=O")
"37.7 nmol/min/mg"
>>> result("CCn1cc(C(=O)NC(=S)Nc2cccc3ccccc23)c(-c2ccccc2)nc1=O")
"36.1 nmol/min/mg"
>>> result("CCn1cc(C(=O)NC(=S)Nc2ccc(C)cc2)c(-c2ccccc2)nc1=O")
"72.9 nmol/min/mg"
>>> result("CCn1cc(C(=O)NC(=S)Nc2ccccc2)c(-c2ccccc2)nc1=O")
"60.8 nmol/min/mg"
>>> result("CCn1cc(C(=O)NC(=S)Nc2ccc(C(N)=O)cc2)c(-c2ccccc2)nc1=O")
"73.4 nmol/min/mg"
>>> result("CCn1cc(C(=O)NC(=S)NCc2ccccc2)c(-c2ccccc2)nc1=O")
"75.1 nmol/min/mg"

----------
# TARGET OR TEST SYSTEM: Heat shock protein HSP 90-alpha (Homo sapiens)
# EXPERIMENTAL PROTOCOL: Inhibition of human His-tagged Hsp90 alpha N-terminal domain ATPase activity expressed in Escherichia coli BL21(DE3) at 25 uM assessed as ADP formation by pyruvate kinase/lactate dehydrogenase-coupled assay
ENDPOINT LABEL: Activity

>>> result("CCn1cc(C(=O)NC(=S)Nc2ccc(F)cc2)c(-c2ccccc2)nc1=O")
"53.1 nmol/min/mg"
>>> result("CCn1cc(C(=O)NC(=S)Nc2ccc(C)cc2)c(-c2ccccc2)nc1=O")
"55 nmol/min/mg"
>>> result("CCn1cc(C(=O)NC(=S)Nc2ccc(Cl)cc2)c(-c2ccccc2)nc1=O")
"70.4 nmol/min/mg"
>>> result("CCn1cc(C(=O)NC(=S)Nc2ccc(C(N)=O)cc2)c(-c2ccccc2)nc1=O")
"64 nmol/min/mg"
>>> result("CCn1cc(C(=O)NC(=S)Nc2cccc3ccccc23)c(-c2ccccc2)nc1=O")
"24.4 nmol/min/mg"
>>> result("CCn1cc(C(=O)NC(=S)Nc2ccccc2)c(-c2ccccc2)nc1=O")
"40.4 nmol/min/mg"
>>> result("CCn1cc(C(=O)NC(=S)NCc2ccccc2)c(-c2ccccc2)nc1=O")
"61.2 nmol/min/mg"
>>> result("CCn1cc(C(=O)NC(=S)Nc2ccc(Br)cc2)c(-c2ccccc2)nc1=O")
"26.6 nmol/min/mg"
>>> result("CCn1cc(C(=O)NC(=S)Nc2ccc(OC)cc2)c(-c2ccccc2)nc1=O")
"28.5 nmol/min/mg"
>>> result("CCn1cc(C(=O)NC(=S)Nc2ccccc2C)c(-c2ccccc2)nc1=O")
"50.1 nmol/min/mg"

----------
# TARGET OR TEST SYSTEM: Heat shock protein HSP 90-alpha (Homo sapiens)
# EXPERIMENTAL PROTOCOL: Inhibition of human His-tagged Hsp90 alpha N-terminal domain ATPase activity expressed in Escherichia coli BL21(DE3) at 6.25 uM assessed as ADP formation by pyruvate kinase/lactate dehydrogenase-coupled assay
ENDPOINT LABEL: Activity

>>> result("CCn1cc(C(=O)NC(=S)Nc2ccc(Br)cc2)c(-c2ccccc2)nc1=O")
"63.6 nmol/min/mg"
>>> result("CCn1cc(C(=O)NC(=S)Nc2ccc(F)cc2)c(-c2ccccc2)nc1=O")
"84.1 nmol/min/mg"
>>> result("CCn1cc(C(=O)NC(=S)Nc2cccc3ccccc23)c(-c2ccccc2)nc1=O")
"49.5 nmol/min/mg"
>>> result("CCn1cc(C(=O)NC(=S)Nc2ccccc2C)c(-c2ccccc2)nc1=O")
"85.7 nmol/min/mg"
>>> result("CCn1cc(C(=O)NC(=S)Nc2ccc(OC)cc2)c(-c2ccccc2)nc1=O")
"59.4 nmol/min/mg"

----------
# TARGET OR TEST SYSTEM: Heat shock protein HSP 90-alpha (Homo sapiens) (UniProt P07900)
# EXPERIMENTAL PROTOCOL: Inhibition of human His-tagged Hsp90 alpha N-terminal domain ATPase activity expressed in Escherichia coli BL21(DE3) at 6.25 uM assessed as ADP formation by pyruvate kinase/lactate dehydrogenase-coupled assay
ENDPOINT LABEL: Activity

>>> result("CCn1cc(C(=O)NC(=S)Nc2ccc(C(N)=O)cc2)c(-c2ccccc2)nc1=O")
"87.1 nmol/min/mg"
>>> result("CCn1cc(C(=O)NC(=S)Nc2ccccc2)c(-c2ccccc2)nc1=O")
"70.3 nmol/min/mg"
>>> result("CCn1cc(C(=O)NC(=S)NCc2ccccc2)c(-c2ccccc2)nc1=O")
"80 nmol/min/mg"
>>> result("CCn1cc(C(=O)NC(=S)Nc2ccc(Cl)cc2)c(-c2ccccc2)nc1=O")
"83.5 nmol/min/mg"
>>> result("CCn1cc(C(=O)NC(=S)Nc2ccc(C)cc2)c(-c2ccccc2)nc1=O")
"80.5 nmol/min/mg"

----------
# TARGET OR TEST SYSTEM: Heat shock protein HSP 90-alpha (Homo sapiens) (UniProt P07900)
# EXPERIMENTAL PROTOCOL: Inhibition of human His-tagged Hsp90 alpha N-terminal domain ATPase activity expressed in Escherichia coli BL21(DE3) at 50 uM assessed as ADP formation by pyruvate kinase/lactate dehydrogenase-coupled assay
molecules and their reported Activity
ENDPOINT LABEL: Activity (nmol/min/mg)

>>> numeric_value("CCn1cc(C(=O)NC(=S)Nc2ccc(C)cc2)c(-c2ccccc2)nc1=O")
43.4
>>> numeric_value("CCn1cc(C(=O)NC(=S)Nc2ccc(F)cc2)c(-c2ccccc2)nc1=O")
38.2
>>> numeric_value("CCn1cc(C(=O)NC(=S)Nc2ccccc2C)c(-c2ccccc2)nc1=O")
38
>>> numeric_value("CCn1cc(C(=O)NC(=S)Nc2ccc(Br)cc2)c(-c2ccccc2)nc1=O")
16.4
>>> numeric_value("CCn1cc(C(=O)NC(=S)Nc2ccc(OC)cc2)c(-c2ccccc2)nc1=O")
16.2

----------
# TARGET OR TEST SYSTEM: UniProt:P07900
# EXPERIMENTAL PROTOCOL: Inhibition of human His-tagged Hsp90 alpha N-terminal domain ATPase activity expressed in Escherichia coli BL21(DE3) at 50 uM assessed as ADP formation by pyruvate kinase/lactate dehydrogenase-coupled assay
Assign labels as follows, please: t for Activity below 50 nmol/min/mg; f for Activity equal to or exceeding 50 nmol/min/mg.

>>> class("CCn1cc(C(=O)NC(=S)Nc2cccc3ccccc23)c(-c2ccccc2)nc1=O")
"t"
>>> class("CCn1cc(C(=O)NC(=S)Nc2ccccc2)c(-c2ccccc2)nc1=O")
"t"
>>> class("CCn1cc(C(=O)NC(=S)Nc2ccc(Cl)cc2)c(-c2ccccc2)nc1=O")
"f"
